Experiment: Mouse PK study (i.v. and p.o.)
Assay type: in vivo
Details: plasma, po, male CD1 mice, 5 mg/kg p.o., read-out: AUClast (hr*ng/mL) p.o.
Attribute: AUC(0-t)
I'd appreciate it if you wrote the number followed by its unit.

Some solved cases for reference:
C[C@@]1(O)CC[C@H]2[C@H](CC[C@@H]3[C@@H]2CC[C@]2(C)[C@@H](C(=O)Cn4nnn(-c5cccc(F)c5)c4=O)CC[C@@H]32)C1 :: 4140 ng·h/mL
CC(C)n1nnn(CC(=O)[C@H]2CC[C@H]3[C@@H]4CC[C@@H]5C[C@](C)(O)CC[C@@H]5[C@H]4CC[C@]23C)c1=O :: 782 ng·h/mL

Pending compound:
INPUT: Query (compound): C[C@@]1(O)CC[C@H]2[C@H](CC[C@@H]3[C@@H]2CC[C@]2(C)[C@@H](C(=O)Cn4nnn(C(F)(F)F)c4=O)CC[C@@H]32)C1 ; field requested: AUC(0-t)
OUTPUT: 203 ng·h/mL

====

Attribute: log10 clearance
Assay: Mouse PK study (i.v. and p.o.)
Format: in vivo
Conditions: plasma, iv, male CD1 mice, 1 mg/kg i.v.
// stored as log10 of clearance expressed in mL/min/kg

Some solved cases for reference:
C[C@@]1(O)CC[C@H]2[C@H](CC[C@@H]3[C@@H]2CC[C@]2(C)[C@@H](C(=O)Cn4nnn(C(F)(F)F)c4=O)CC[C@@H]32)C1 :: 2.11
COc1cccc(-n2nnn(CC(=O)[C@H]3CC[C@H]4[C@@H]5CC[C@@H]6C[C@](C)(O)CC[C@@H]6[C@H]5CC[C@]34C)c2=O)c1 :: 1.52
Cn1nnn(CC(=O)[C@H]2CC[C@H]3[C@@H]4CC[C@@H]5C[C@](C)(O)CC[C@@H]5[C@H]4CC[C@]23C)c1=O :: 1.03
C[C@@]1(O)CC[C@H]2[C@H](CC[C@@H]3[C@@H]2CC[C@]2(C)[C@@H](C(=O)Cn4nnn(-c5cccc(F)c5)c4=O)CC[C@@H]32)C1 :: 0.92
Cn1ccc(-n2nnn(CC(=O)[C@H]3CC[C@H]4[C@@H]5CC[C@@H]6C[C@](C)(O)CC[C@@H]6[C@H]5CC[C@]34C)c2=O)n1 :: 1.16
C[C@@]1(O)CC[C@H]2[C@H](CC[C@@H]3[C@@H]2CC[C@]2(C)[C@@H](C(=O)Cn4nnn(-c5cocn5)c4=O)CC[C@@H]32)C1 :: 1.19
CC(C)(C)n1nnn(CC(=O)[C@H]2CC[C@H]3[C@@H]4CC[C@@H]5C[C@](C)(O)CC[C@@H]5[C@H]4CC[C@]23C)c1=O :: 1.39
C[C@@]1(O)CC[C@H]2[C@H](CC[C@@H]3[C@@H]2CC[C@]2(C)[C@@H](C(=O)Cn4nnn(-c5ccc(F)cc5)c4=O)CC[C@@H]32)C1 :: 1.13
C[C@@]1(O)CC[C@H]2[C@H](CC[C@@H]3[C@@H]2CC[C@]2(C)[C@@H](C(=O)Cn4nnn(-c5ccc(C#N)cc5)c4=O)CC[C@@H]32)C1 :: 0.75

INPUT: Query (molecule): C[C@@]1(O)CC[C@H]2[C@H](CC[C@@H]3[C@@H]2CC[C@]2(C)[C@@H](C(=O)Cn4nnn(-c5cn[nH]c5)c4=O)CC[C@@H]32)C1 ; field requested: log10 clearance
OUTPUT: 0.86

====

Assay: Mouse PK study (i.v. and p.o.)
Type: in vivo
Details: plasma, iv, male CD1 mice, 1 mg/kg i.v., read-out: Vss
Property Name: Vd (L/kg)
The answer is to be given in L/kg; state only the numeric part.

C[C@@]1(O)CC[C@H]2[C@H](CC[C@@H]3[C@@H]2CC[C@]2(C)[C@@H](C(=O)Cn4nnn(-c5ccncc5)c4=O)CC[C@@H]32)C1 [Example 17] :: 2.12
C[C@@]1(O)CC[C@H]2[C@H](CC[C@@H]3[C@@H]2CC[C@]2(C)[C@@H](C(=O)Cn4nnn(-c5ccc(C#N)cc5)c4=O)CC[C@@H]32)C1 [Example 13] :: 2.94

Pending compound:
INPUT: Query (compound): C[C@@]1(O)CC[C@H]2[C@H](CC[C@@H]3[C@@H]2CC[C@]2(C)[C@@H](C(=O)Cn4nnn(-c5ccn[nH]5)c4=O)CC[C@@H]32)C1 [Example 25] ; field requested: Vd
OUTPUT: 1.88

====

Assay: Mouse PK study (i.v. and p.o.)
Type: in vivo
Conditions: plasma, iv, male CD1 mice, 1 mg/kg i.v., read-out: AUClast (hr*ng/mL) i.v.
Property Name: log10(AUC(0-t)) (log10 of the value in ng·h/mL)
// stored as log10 of AUC(0-t) expressed in ng·h/mL

Some solved cases for reference:
Cn1ccc(-n2nnn(CC(=O)[C@H]3CC[C@H]4[C@@H]5CC[C@@H]6C[C@](C)(O)CC[C@@H]6[C@H]5CC[C@]34C)c2=O)n1 :: 3.05
C[C@@]1(O)CC[C@H]2[C@H](CC[C@@H]3[C@@H]2CC[C@]2(C)[C@@H](C(=O)Cn4nnn(CC5CC5)c4=O)CC[C@@H]32)C1 :: 2.38
C[C@@]1(O)CC[C@H]2[C@H](CC[C@@H]3[C@@H]2CC[C@]2(C)[C@@H](C(=O)Cn4nnn(-c5ccc(C#N)cc5)c4=O)CC[C@@H]32)C1 :: 3.42
CC(C)(C)n1nnn(CC(=O)[C@H]2CC[C@H]3[C@@H]4CC[C@@H]5C[C@](C)(O)CC[C@@H]5[C@H]4CC[C@]23C)c1=O :: 2.80
COc1cccc(-n2nnn(CC(=O)[C@H]3CC[C@H]4[C@@H]5CC[C@@H]6C[C@](C)(O)CC[C@@H]6[C@H]5CC[C@]34C)c2=O)c1 :: 2.70

INPUT: Query (compound): C[C@@]1(O)CC[C@H]2[C@H](CC[C@@H]3[C@@H]2CC[C@]2(C)[C@@H](C(=O)Cn4nnn(-c5cccnc5)c4=O)CC[C@@H]32)C1 ; field requested: log10(AUC(0-t))
OUTPUT: 2.43

====

Assay: Mouse PK study (i.v. and p.o.)
Assay type: in vivo
Conditions: plasma, po, male CD1 mice, 5 mg/kg p.o.
Description: Test compounds were dosed to male CD1 mice at 5 mg/kg by oral gavage (p.o.) or 1 mg/kg by intravenous injection (i.v.). Blood samples were taken at 0.083, 0.25, 0.5, 1.0, 3.0, 6.0 and 24 hours post i.v. dosing and at 0.25, 0.5, 1.0, 3.0, 6.0 and 24 hours post p.o. dosing. The plasma concentration of compounds were determined by HPLC.
Property Name: Cmax (ng/mL)
The answer is to be given in ng/mL; state only the numeric part.

Some solved cases for reference:
C[C@@]1(O)CC[C@H]2[C@H](CC[C@@H]3[C@@H]2CC[C@]2(C)[C@@H](C(=O)Cn4nnn(-c5cccnc5)c4=O)CC[C@@H]32)C1 :: 297
C[C@@]1(O)CC[C@H]2[C@H](CC[C@@H]3[C@@H]2CC[C@]2(C)[C@@H](C(=O)Cn4nnn(-c5ccc(F)cc5)c4=O)CC[C@@H]32)C1 :: 274
C[C@@]1(O)CC[C@H]2[C@H](CC[C@@H]3[C@@H]2CC[C@]2(C)[C@@H](C(=O)Cn4nnn(-c5cccc(F)c5)c4=O)CC[C@@H]32)C1 :: 388
COc1ccc(-n2nnn(CC(=O)[C@H]3CC[C@H]4[C@@H]5CC[C@@H]6C[C@](C)(O)CC[C@@H]6[C@H]5CC[C@]34C)c2=O)cc1 :: 106
Cn1ccc(-n2nnn(CC(=O)[C@H]3CC[C@H]4[C@@H]5CC[C@@H]6C[C@](C)(O)CC[C@@H]6[C@H]5CC[C@]34C)c2=O)n1 :: 1070
COc1cccc(-n2nnn(CC(=O)[C@H]3CC[C@H]4[C@@H]5CC[C@@H]6C[C@](C)(O)CC[C@@H]6[C@H]5CC[C@]34C)c2=O)c1 :: 109
C[C@@]1(O)CC[C@H]2[C@H](CC[C@@H]3[C@@H]2CC[C@]2(C)[C@@H](C(=O)Cn4nnn(-c5cn[nH]c5)c4=O)CC[C@@H]32)C1 :: 563
CC(C)n1nnn(CC(=O)[C@H]2CC[C@H]3[C@@H]4CC[C@@H]5C[C@](C)(O)CC[C@@H]5[C@H]4CC[C@]23C)c1=O :: 808

INPUT: Query (compound): C[C@@]1(O)CC[C@H]2[C@H](CC[C@@H]3[C@@H]2CC[C@]2(C)[C@@H](C(=O)Cn4nnn(C(F)(F)F)c4=O)CC[C@@H]32)C1 ; field requested: Cmax
OUTPUT: 213

INPUT: Then this compound: Cn1nccc1-n1nnn(CC(=O)[C@H]2CC[C@H]3[C@@H]4CC[C@@H]5C[C@](C)(O)CC[C@@H]5[C@H]4CC[C@]23C)c1=O
OUTPUT: 827

INPUT: Then this compound: C[C@@]1(O)CC[C@H]2[C@H](CC[C@@H]3[C@@H]2CC[C@]2(C)[C@@H](C(=O)Cn4nnn(C5CCCC5)c4=O)CC[C@@H]32)C1
OUTPUT: 22
